# tested.target: UniProt P06401
# experiment.summary: PR binding assay, baculovirus extract, [3H] progesterone
# condition.notes: competition with [3H] progesterone, 4° C., 16 hours; read-out: PR Binding Ki
readout.name: Ki (nM)
One number for each entry, in nM.

Ask | Record request: Ki value, item CC1=CC(C)(C)Nc2ccc3c(c21)COc1c(Cl)cccc1-3 [Compound 331]
Reply | 273

---

# tested.target: human androgen receptor (AR) (Homo sapiens, UniProt P10275)
# Construct: expressed in transfected cells; host or cells: CV-1 cells, transient transfection
# Sequence (P10275 whole entry): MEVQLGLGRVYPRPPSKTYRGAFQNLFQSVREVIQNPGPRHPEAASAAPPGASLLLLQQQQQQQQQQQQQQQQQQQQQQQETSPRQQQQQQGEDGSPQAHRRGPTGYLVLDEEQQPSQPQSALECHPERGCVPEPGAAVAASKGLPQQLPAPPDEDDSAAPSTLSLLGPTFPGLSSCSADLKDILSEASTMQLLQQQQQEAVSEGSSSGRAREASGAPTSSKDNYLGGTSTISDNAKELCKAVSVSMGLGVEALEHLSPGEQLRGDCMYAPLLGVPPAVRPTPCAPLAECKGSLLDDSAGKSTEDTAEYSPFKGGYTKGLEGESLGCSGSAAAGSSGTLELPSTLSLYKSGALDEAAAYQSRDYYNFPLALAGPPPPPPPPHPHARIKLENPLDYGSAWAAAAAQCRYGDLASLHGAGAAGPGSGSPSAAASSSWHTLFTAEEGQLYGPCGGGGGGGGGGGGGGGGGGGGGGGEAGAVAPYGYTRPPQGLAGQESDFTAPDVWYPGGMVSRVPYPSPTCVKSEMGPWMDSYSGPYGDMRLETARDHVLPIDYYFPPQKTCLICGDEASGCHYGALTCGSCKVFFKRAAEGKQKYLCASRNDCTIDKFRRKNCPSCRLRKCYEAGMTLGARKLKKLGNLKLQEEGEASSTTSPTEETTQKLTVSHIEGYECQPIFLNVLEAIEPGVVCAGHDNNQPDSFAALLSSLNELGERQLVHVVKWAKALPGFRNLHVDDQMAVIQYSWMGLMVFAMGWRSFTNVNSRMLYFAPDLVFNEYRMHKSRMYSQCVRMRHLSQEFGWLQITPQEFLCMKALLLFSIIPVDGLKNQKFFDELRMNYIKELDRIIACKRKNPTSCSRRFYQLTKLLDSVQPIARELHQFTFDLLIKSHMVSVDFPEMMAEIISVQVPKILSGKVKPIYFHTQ
# experiment.summary: Co-transfection assay, AR agonist and antagonist activity, CV-1 cells (pRShAR)
# Assay type: cell-based
# condition.notes: Table 2; agonist mode; relative to DHT
readout.name: AR Agonist CV-1 Cells Efficacy (%)

Ask | Fill in: AR Agonist CV-1 Cells Efficacy (%) of CC1=CC(C)(C)Nc2cc3[nH]c(=O)cc(C(F)(F)F)c3cc21 [Compound 247] is ___
Reply | 23%

---

# tested.target: human glucocorticoid receptor (GR) (Homo sapiens)
# Construct: expressed in transfected cells; host or cells: CV-1 cells, transient transfection
# experiment.summary: Co-transfection assay, GR antagonist activity, CV-1 cells (pRShGR)
# Format: cell-based
readout.name: IC50
Quick note: number first, unit second.

Ask | Find the measured IC50: item CC(=O)S[C@@H]1CC2=CC(=O)CC[C@]2(C)[C@H]2CC[C@@]3(C)[C@@H](CC[C@@]34CCC(=O)O4)[C@H]12 [Spir, reference compound] , target or system human glucocorticoid receptor (GR) (Homo sapiens).
Reply | 2000 nM

---

# tested.target: human PR-B (Homo sapiens)
# Construct: expressed in transfected cells; host or cells: CV-1 cells (African green monkey kidney fibroblasts), transient transfection
# Sequence (P06401 1-933): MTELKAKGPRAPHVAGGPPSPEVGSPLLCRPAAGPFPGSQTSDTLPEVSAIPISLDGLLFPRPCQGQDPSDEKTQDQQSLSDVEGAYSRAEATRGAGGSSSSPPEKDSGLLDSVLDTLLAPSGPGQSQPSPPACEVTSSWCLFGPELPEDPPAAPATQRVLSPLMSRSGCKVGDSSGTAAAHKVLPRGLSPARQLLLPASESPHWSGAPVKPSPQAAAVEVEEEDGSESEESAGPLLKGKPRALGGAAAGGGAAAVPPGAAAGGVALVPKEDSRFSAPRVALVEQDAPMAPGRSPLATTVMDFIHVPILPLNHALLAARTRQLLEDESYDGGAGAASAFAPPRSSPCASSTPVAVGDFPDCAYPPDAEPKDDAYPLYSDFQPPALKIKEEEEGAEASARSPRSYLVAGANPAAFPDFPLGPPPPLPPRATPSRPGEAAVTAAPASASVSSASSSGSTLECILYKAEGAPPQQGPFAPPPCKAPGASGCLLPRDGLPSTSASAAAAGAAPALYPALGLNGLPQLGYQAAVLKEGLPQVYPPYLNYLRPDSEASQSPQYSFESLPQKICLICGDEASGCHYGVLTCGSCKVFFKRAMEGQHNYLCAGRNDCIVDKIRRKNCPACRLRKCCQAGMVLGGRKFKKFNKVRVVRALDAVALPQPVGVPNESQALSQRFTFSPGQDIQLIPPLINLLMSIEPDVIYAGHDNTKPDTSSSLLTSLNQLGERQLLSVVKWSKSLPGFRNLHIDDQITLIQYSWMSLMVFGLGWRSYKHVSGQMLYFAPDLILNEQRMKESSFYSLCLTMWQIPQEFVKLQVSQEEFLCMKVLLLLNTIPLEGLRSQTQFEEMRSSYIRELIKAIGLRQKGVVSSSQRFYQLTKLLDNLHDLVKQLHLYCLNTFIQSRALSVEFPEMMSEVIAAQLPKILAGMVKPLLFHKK
# experiment.summary: Co-transfection assay, PR agonist and antagonist activity, CV-1 cells
# Format: cell-based
# condition.notes: agonist mode; EC50; read-out: PR Agonist CV-1 Cells Potency
Binary call on EC50 with cut-off 100 nM: strictly below means Condition met, and equality or higher means Condition not met.

Sample answers from the record:
>  <molecule>
CC1=CC(C)(C)Nc2ccc3c(c21)/C(=C/c1ccc(F)cc1)Oc1ccccc1-3

>  <classification>
Condition not met

$$$$
>  <molecule>
CC1=CC(C)(C)Nc2ccc(-c3cccc(C#N)c3)cc21

>  <classification>
Condition not met

$$$$
>  <molecule>
CC1=CC(C)(C)Nc2ccc3c(c21)C(c1ccccc1)Oc1ccccc1-3 (racemic)

>  <classification>
Condition not met

$$$$
>  <molecule>
CC1=CC(C)(C)Nc2ccc3c(c21)C(c1cccc(C(F)(F)F)c1)Oc1ccccc1-3 (racemic)

>  <classification>
Condition met

$$$$
>  <molecule>
CC1=CC(C)(C)Nc2ccc3c(c21)/C(=C/c1ccccc1)Oc1ccccc1-3

>  <classification>
Condition met

$$$$
>  <molecule>
CC1(C)Nc2ccc3c(c2C(=O)C1(C)C)C(c1ccc(Cl)cc1)Oc1ccccc1-3 (racemic)

>  <classification>
Condition not met

$$$$

Ask | Input CCCO[C@@H]1[C@@H](C)c2c(ccc3c2[C@H](c2ccc(Cl)cc2)Oc2ccccc2-3)NC1(C)C (racemic) ; condition: EC50 strictly below 100 nM. Does it hold?
Reply | Condition not met

Ask | Identify whether the molecule CC1=CC(C)(C)Nc2cc(C)c3c(c21)/C(=C/c1ccccc1)Oc1ccc(F)cc1-3 records EC50 below 100 nM.
Reply | Condition not met

---

# tested.target: human PR-B (Homo sapiens)
# Construct: expressed in transfected cells; host or cells: CV-1 cells (African green monkey kidney fibroblasts), transient transfection
# experiment.summary: Co-transfection assay, PR agonist and antagonist activity, CV-1 cells;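 also: luciferase reporter driven by a hormone response element, co-transfected with human PR-B into CV-1 monkey kidney cells, agonists raise and antagonists lower the reporter signal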
# Format: cell-based
# condition.notes: agonist mode; EC50; read-out: PR Agonist CV-1 Cells Potency
readout.name: pEC50
Answers are plain numbers, as −log10 of the molar value.

Example compounds with recorded pEC50:
>  <compound>
CC1=CC(C)(C)Nc2ccc3c(c21)C(c1ccc(Cl)cc1)Oc1ccccc1-3 (racemic) [Compound 163]

>  <tested.target>
human PR-B (Homo sapiens)

>  <result.number>
7.82

$$$$
>  <compound>
CC1=CC(C)(C)Nc2ccc(-c3nn(C)cc3Br)cc21 [Compound 104]

>  <tested.target>
human PR-B (Homo sapiens)

>  <result.number>
5.56

$$$$
>  <compound>
CC1=CC(C)(C)Nc2ccc3c(c21)/C(=C/c1ccccc1C)Oc1ccc(F)cc1-3 [Compound 374]

>  <tested.target>
human PR-B (Homo sapiens)

>  <result.number>
8.40

$$$$
>  <compound>
CC1=CC(C)(C)Nc2ccc3c(c21)/C(=C/c1ccccc1F)Oc1ccccc1-3 [Compound 228]

>  <tested.target>
human PR-B (Homo sapiens)

>  <result.number>
7.40

$$$$
>  <compound>
CC1(C)C=Cc2c(ccc3c2/C(=C/c2ccccc2)Oc2ccc(Cl)cc2-3)N1 [Compound 368]

>  <tested.target>
human PR-B (Homo sapiens)

>  <result.number>
7.37

$$$$
>  <compound>
CC1C(=O)C(C)(C)Nc2ccc3c(c21)/C(=C/c1cccc(F)c1)Oc1ccccc1-3 (racemic) [Compound 389]

>  <tested.target>
human PR-B (Homo sapiens)

>  <result.number>
7.77

$$$$

Record pEC50 per entry; entries follow.
1. CC1=CC(C)(C)Nc2ccc(-c3csc(C#N)c3)cc21 [Compound 452]
2. CC1(C)C=Cc2c(ccc3c2c(=O)oc2ccc(Cl)cc23)N1 [Compound 313]
3. CC1=CC(C)(C)Nc2ccc3c(c21)C(c1cccc(F)c1)Oc1ccccc1-3 (racemic) [Compound 191]
4. CCCCC1Oc2ccccc2-c2ccc3c(c21)C(C)C(O)(CCCC)C(C)(C)N3 (racemic) [Compound 385]

Reply |
1. 5.62
2. 6.52
3. 8.05
4. 7.09

---

# tested.target: human glucocorticoid receptor (GR) (Homo sapiens)
# Construct: expressed in transfected cells; host or cells: CV-1 cells, transient transfection
# Sequence (P04150 1-777): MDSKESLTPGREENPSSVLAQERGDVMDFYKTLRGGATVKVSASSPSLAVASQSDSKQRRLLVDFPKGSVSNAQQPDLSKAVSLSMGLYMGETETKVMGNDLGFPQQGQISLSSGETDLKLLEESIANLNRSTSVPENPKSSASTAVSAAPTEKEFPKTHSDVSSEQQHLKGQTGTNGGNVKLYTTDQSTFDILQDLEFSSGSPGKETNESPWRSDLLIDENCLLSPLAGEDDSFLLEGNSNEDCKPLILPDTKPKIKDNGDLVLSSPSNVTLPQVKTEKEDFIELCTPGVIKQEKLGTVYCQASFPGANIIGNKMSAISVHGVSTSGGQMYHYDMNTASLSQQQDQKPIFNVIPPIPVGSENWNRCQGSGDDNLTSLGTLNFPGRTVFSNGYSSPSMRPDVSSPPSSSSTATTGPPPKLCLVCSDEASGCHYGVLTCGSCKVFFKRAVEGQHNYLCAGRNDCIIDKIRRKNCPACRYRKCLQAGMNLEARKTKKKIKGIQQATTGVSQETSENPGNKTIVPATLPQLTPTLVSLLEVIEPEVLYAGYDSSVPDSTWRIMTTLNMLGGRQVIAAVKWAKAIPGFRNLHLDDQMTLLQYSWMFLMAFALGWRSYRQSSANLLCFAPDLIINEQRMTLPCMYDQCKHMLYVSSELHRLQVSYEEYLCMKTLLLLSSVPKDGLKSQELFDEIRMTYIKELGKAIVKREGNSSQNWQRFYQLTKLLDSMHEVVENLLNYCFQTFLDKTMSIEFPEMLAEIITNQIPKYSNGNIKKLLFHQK
# experiment.summary: Co-transfection assay, GR antagonist activity, CV-1 cells (pRShGR)
# Type: cell-based
# condition.notes: Table 4; antagonist mode; % maximal inhibition
readout.name: GR Antagonist CV-1 Cells Efficacy (%)
Don't forget the unit after the value.

Some solved entries appear below for comparison.
>  <compound>
CC1=CC(C)(C)Nc2ccc3c(c21)C(c1ccccc1)Oc1ccccc1-3 (racemic)

>  <GR Antagonist CV-1 Cells Efficacy (%)>
97%

$$$$
>  <compound>
CC1=CC(C)(C)Nc2ccc3c(c21)C(c1ccc(C)cc1)Oc1ccccc1-3 (racemic)

>  <GR Antagonist CV-1 Cells Efficacy (%)>
96%

$$$$
>  <compound>
CC(=O)S[C@@H]1CC2=CC(=O)CC[C@]2(C)[C@H]2CC[C@@]3(C)[C@@H](CC[C@@]34CCC(=O)O4)[C@H]12 [Spir, reference compound]

>  <GR Antagonist CV-1 Cells Efficacy (%)>
80%

$$$$
>  <compound>
C=C1CC(C)(C)Nc2ccc3c(c21)C(c1cccc(F)c1)Oc1ccccc1-3 (racemic)

>  <GR Antagonist CV-1 Cells Efficacy (%)>
81%

$$$$

Please give GR Antagonist CV-1 Cells Efficacy (%) for each item listed below.
1. CC#C[C@]1(O)CC[C@H]2[C@@H]3CCC4=CC(=O)CCC4=C3[C@@H](c3ccc(N(C)C)cc3)C[C@@]21C [RU486, reference compound]
2. CC1=CC(C)(C)Nc2ccc3c(c21)C(c1ccsc1)Oc1ccccc1-3 (racemic)
3. CC1=CC(C)(C)Nc2ccc3c(c21)C(c1cccc(C(F)(F)F)c1)Oc1ccccc1-3 (racemic)

Reply |
1. 100%
2. 94%
3. 96%
